The entries below come with measured EC50 values attached.
target-or-test-system: EGFR (Homo sapiens, UniProt P00533)
Sequence (P00533 25-1210): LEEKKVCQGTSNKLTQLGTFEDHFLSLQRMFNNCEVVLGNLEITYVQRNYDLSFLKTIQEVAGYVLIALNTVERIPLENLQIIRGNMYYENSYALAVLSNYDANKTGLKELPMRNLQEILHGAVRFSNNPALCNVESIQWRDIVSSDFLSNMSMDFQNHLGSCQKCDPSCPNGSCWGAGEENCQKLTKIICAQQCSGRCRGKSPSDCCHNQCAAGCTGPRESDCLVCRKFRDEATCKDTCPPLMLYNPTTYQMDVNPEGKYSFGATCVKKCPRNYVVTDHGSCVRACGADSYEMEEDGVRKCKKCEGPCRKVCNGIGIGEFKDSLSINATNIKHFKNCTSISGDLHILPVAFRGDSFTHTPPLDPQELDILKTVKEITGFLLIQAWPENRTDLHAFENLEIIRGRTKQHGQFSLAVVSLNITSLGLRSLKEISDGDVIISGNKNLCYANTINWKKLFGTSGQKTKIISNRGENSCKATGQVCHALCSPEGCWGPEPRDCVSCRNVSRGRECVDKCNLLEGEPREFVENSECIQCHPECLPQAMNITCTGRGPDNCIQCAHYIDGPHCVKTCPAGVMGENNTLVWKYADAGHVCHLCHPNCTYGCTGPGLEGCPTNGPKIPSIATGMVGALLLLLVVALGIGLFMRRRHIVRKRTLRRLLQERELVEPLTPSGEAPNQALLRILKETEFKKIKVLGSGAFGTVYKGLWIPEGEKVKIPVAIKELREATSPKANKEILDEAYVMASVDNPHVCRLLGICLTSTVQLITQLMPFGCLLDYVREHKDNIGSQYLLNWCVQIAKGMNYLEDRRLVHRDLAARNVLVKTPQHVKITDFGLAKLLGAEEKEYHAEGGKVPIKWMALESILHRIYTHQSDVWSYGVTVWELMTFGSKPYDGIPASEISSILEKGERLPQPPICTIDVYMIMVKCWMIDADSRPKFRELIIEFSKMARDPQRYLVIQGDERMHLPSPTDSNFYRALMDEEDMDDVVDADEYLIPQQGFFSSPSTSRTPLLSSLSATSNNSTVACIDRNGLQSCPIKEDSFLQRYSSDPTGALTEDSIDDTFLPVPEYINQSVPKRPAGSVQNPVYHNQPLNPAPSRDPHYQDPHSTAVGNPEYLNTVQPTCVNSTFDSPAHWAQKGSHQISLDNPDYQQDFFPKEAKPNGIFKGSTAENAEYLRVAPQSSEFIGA
assay-notes: EGFR signaling (pEGFR Tyr1068/total EGFR MSD) in A431 cells
Type: cell-based
Parameters: endogenous in cells; host or cells: A431, N87
condition: A431 cells; read-out: A431 pEGFR EC50

EGFR (Homo sapiens, UniProt P00533) assay, compound Cc1ccc(Oc2ccc(Nc3ncnc4sc5c(c34)C(C)CN(C(=O)/C=C/CN(C)C)C5)cc2Cl)cn1 (stereo not shown) [Compound 171] , recorded EC50 = < 0.1 µM

###

target-or-test-system: EGFR (Homo sapiens, UniProt P00533)
assay-notes: EGFR signaling (pEGFR Tyr1068/total EGFR MSD) in A431 cells
Assay type: cell-based
Parameters: endogenous in cells; host or cells: A431, N87
condition: A431 cells; read-out: A431 pEGFR EC50
pEC50: −log10 of the molar value.
readout-kind: pEC50

The cases that follow already have their pEC50 on record.
# compound, pEC50
records = [
    ("Cc1ccc(Oc2ccc(Nc3ncnc4sc5c(c34)CCN(C(=O)/C=C/CN3CCOC[C@@H]3C)C5)cc2C)cn1", "6.00 to 7.00"),
    ("Cc1ccc(Oc2ccc(Nc3ncnc4sc5c(c34)CCN(C(=O)/C=C/CNC3COC3)C5)cc2C)cn1", "6.00 to 7.00"),
]

EGFR (Homo sapiens, UniProt P00533) assay, compound Cc1ccc(Oc2ccc(Nc3ncnc4sc5c(c34)CCN(C(=O)/C=C/CN3CCn4cc(C(F)(F)F)nc4C3)C5)cc2C)cn1 , recorded pEC50 = < 5.00

EGFR (Homo sapiens, UniProt P00533) assay, compound Cc1ccc(Oc2ccc(Nc3ncnc4sc5c(c34)CCN(C(=O)/C=C/CN3CCC4(CCOC4)C3)C5)cc2C)cn1 (stereo not shown) , recorded pEC50 = > 7.00

EGFR (Homo sapiens, UniProt P00533) assay, compound Cc1ccc(Oc2ccc(Nc3ncnc4sc5c(c34)CCN(C(=O)/C=C/CN(CCO)CCO)C5)cc2C)cn1 , recorded pEC50 = < 5.00

EGFR (Homo sapiens, UniProt P00533) assay, compound Cc1cc(Nc2ncnc3sc4c(c23)CN(C(=O)/C=C/CN(C)C)CC4)ccc1Oc1ccc2ncnn2c1 , recorded pEC50 = 6.00 to 7.00

EGFR (Homo sapiens, UniProt P00533) assay, compound Cc1ccc(Oc2ccc(Nc3ncnc4sc5c(c34)CCN(C(=O)/C=C/CN3C[C@H]4C[C@@H]3CC4C#N)C5)cc2C)cn1 (stereo partly shown) , recorded pEC50 = 6.00 to 7.00
